Reference source for all entries: patent US20250177363A1

# target_of_assay: human TLR9 (Homo sapiens, UniProt Q9NR96)
# Sequence (Q9NR96 26-1032): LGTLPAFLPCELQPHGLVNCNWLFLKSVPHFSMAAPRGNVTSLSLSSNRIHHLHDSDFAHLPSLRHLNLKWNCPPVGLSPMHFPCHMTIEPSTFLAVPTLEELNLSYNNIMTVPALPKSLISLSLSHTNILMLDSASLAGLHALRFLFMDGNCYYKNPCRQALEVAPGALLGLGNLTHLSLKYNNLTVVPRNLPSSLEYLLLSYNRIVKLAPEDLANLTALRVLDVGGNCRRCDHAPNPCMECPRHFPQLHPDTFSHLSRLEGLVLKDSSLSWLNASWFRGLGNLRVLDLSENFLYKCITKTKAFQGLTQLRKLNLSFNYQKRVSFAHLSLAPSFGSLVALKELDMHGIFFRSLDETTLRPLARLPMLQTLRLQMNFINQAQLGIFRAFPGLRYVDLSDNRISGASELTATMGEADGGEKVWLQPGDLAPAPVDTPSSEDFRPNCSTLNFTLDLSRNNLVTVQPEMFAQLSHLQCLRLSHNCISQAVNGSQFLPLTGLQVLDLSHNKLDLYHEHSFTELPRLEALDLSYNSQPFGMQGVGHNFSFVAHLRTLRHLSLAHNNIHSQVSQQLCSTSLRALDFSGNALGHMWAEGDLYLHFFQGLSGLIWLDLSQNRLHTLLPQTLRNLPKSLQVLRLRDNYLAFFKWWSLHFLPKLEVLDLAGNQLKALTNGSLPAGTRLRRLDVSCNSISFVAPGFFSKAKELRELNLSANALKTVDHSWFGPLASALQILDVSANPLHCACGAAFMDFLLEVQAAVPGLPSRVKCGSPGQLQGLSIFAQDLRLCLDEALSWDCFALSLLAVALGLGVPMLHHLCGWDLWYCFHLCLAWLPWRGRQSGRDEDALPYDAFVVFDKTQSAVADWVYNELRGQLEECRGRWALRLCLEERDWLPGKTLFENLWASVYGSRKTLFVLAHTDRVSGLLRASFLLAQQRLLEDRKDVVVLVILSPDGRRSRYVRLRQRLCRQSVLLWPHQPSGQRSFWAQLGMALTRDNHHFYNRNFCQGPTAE
# measurement_description: TLR9 inhibition reporter assay (HEK-Blue, SEAP)
# applied_conditions: HEK-Blue cells overexpressing human TLR9, ligand ODN2006 200 nM, 22 hour incubation
pIC50: −log10 of the molar value.
Would you mind labelling by pIC50? At or over 7 is T, under is F.

Could you please find out whether COc1ccc(-c2nc3ncc(-c4ccc(N5CCN(C(C)C)CC5)cc4)cc3n2C)cc1OC [Example 48] has pIC50 that meets 7 or exceeds it?
F
